Test: Plasma concentration of LY-354740 in rats after oral administration of compound at a dose of 5 mg equiv 1/kg at 3 hr
Type: ADME
Details: rat
Please respond with reported Plasma concentration for every item in the list.
Kindly format the answer as number then unit.

Worked cases, Plasma concentration given:
| molecule | measurement |
| --- | --- |
| CSCC[C@H](NC(=O)[C@]1(N)CC[C@H]2[C@H](C(=O)O)[C@H]21)C(=O)O | 889 ng/mL |
| CC(C)C[C@H](NC(=O)[C@]1(N)CC[C@H]2[C@H](C(=O)O)[C@H]21)C(=O)O | 919 ng/mL |

Give one value of Plasma concentration per listed molecule.
1. C[C@@H](N)C(=O)N[C@@]1(C(=O)O)CC[C@H]2[C@H](C(=O)O)[C@H]21.Cl
2. CC(C)[C@H](NC(=O)[C@]1(N)CC[C@H]2[C@H](C(=O)O)[C@H]21)C(=O)O
3. CC(C)C[C@H](N)C(=O)N[C@@]1(C(=O)O)CC[C@H]2[C@H](C(=O)O)[C@H]21.Cl
4. Cl.N[C@@H](Cc1ccccc1)C(=O)N[C@@]1(C(=O)O)CC[C@H]2[C@H](C(=O)O)[C@H]21
5. C[C@H](N)C(=O)N[C@@H](C)C(=O)N[C@@]1(C(=O)O)CC[C@H]2[C@H](C(=O)O)[C@H]21.Cl
6. CC[C@H](C)[C@H](NC(=O)[C@]1(N)CC[C@H]2[C@H](C(=O)O)[C@H]21)C(=O)O
7. C[C@H](N)C(=O)N[C@@]1(C(=O)O)CC[C@H]2[C@H](C(=O)O)[C@H]21.Cl [TALAGLUMETAD HYDROCHLORIDE]
8. CC(C)[C@H](N)C(=O)N[C@@]1(C(=O)O)CC[C@H]2[C@H](C(=O)O)[C@H]21.Cl

525 ng/mL
10 ng/mL
1152 ng/mL
1274 ng/mL
734 ng/mL
20 ng/mL
1770 ng/mL
1136 ng/mL

Give one value of Plasma concentration per listed molecule.
1. N[C@@]1(C(=O)N[C@@H](CO)C(=O)O)CC[C@H]2[C@H](C(=O)O)[C@H]21
2. N[C@@]1(C(=O)N[C@@H](Cc2ccccc2)C(=O)O)CC[C@H]2[C@H](C(=O)O)[C@H]21
3. N[C@@]1(C(=O)N[C@@H](Cc2ccc(O)cc2)C(=O)O)CC[C@H]2[C@H](C(=O)O)[C@H]21

53 ng/mL
10 ng/mL
124 ng/mL

----------
System: Caco-2
Test: Inhibition of radiolabeled glycylsarcosine (Gly-Sar) uptake into Caco-2 cells done for 15 min at 37 degree C with compound
Format: functional, cell-based
Conditions: Homo sapiens, Caco-2, 0.25 h
Please respond with reported IC50 for every item in the list.
One number for each entry, in mM.

Worked cases, IC50 given:
| compound | unitAbbreviation | IC50 |
| --- | --- | --- |
| CC(C)C[C@@H](N)C(=O)N[C@@]1(C(=O)O)CC[C@H]2[C@H](C(=O)O)[C@H]21.Cl | mM | 6.31 |
| Cl.N[C@@H](Cc1ccccc1)C(=O)N[C@@]1(C(=O)O)CC[C@H]2[C@H](C(=O)O)[C@H]21 | mM | 0.42 |
| CC(C)C[C@H](N)C(=O)N[C@@]1(C(=O)O)CC[C@H]2[C@H](C(=O)O)[C@H]21.Cl | mM | 5.01 |
| CC(C)C[C@H](NC(=O)[C@]1(NC(=O)[C@H](C)N)CCC2C1[C@H]2C(=O)O)C(=O)O (stereo partly specified) | mM | 3.05 |

So what does the record say about IC50 for C[C@H](N)C(=O)N[C@@]1(C(=O)O)CC[C@H]2[C@H](C(=O)O)[C@H]21.Cl [TALAGLUMETAD HYDROCHLORIDE] ?
0.3
